Reference for the values: paper PMC11637378

- System: parent strain (SAWy518)
Where a name gives a salt, the structure may show the parent alone.
Measured Metric: Offscreen_18hr

// worked examples, Offscreen_18hr included
>  <Compound>
Cc1ccc(S(=O)(=O)/C=C/C#N)cc1 [BAY 11-7082 (BAY 11-7821)]

>  <Result>
0.151

$$$$
>  <Compound>
Oc1ccc2ccccc2c1SSc1c(O)ccc2ccccc12

>  <Result>
0.0457

$$$$
>  <Compound>
COc1ccc([C@@H](C)C(=O)c2ccc(O)cc2O)cc1

>  <Result>
0.7726

$$$$
>  <Compound>
CCCCCCCCCCCCC[N+](C)(C)Cc1ccccc1.[Cl-] [BENZALKONIUM CHLORIDE]

>  <Result>
0.0504

$$$$
>  <Compound>
CC/C(=C(\c1ccccc1)c1ccc(OCCN(C)C)cc1)c1ccccc1.O=C(O)CC(O)(CC(=O)O)C(=O)O [Tamoxifen Citrate]

>  <Result>
0.7799

$$$$
>  <Compound>
CC/C(=C(/CC)c1ccc(O)cc1)c1ccc(O)cc1

>  <Result>
0.8277

$$$$
>  <Compound>
CN(C)c1ccc2nc3ccc(=[N+](C)C)cc-3sc2c1.O.O.O.[Cl-]

>  <Result>
0.8664

$$$$
>  <Compound>
COc1c(O)cc2oc3cc(O)c(CC=C(C)C)c(O)c3c(=O)c2c1CC=C(C)C

>  <Result>
0.726

$$$$
>  <Compound>
CC(=O)[C@]1(O)Cc2c(O)c3c(c(O)c2[C@@H](O[C@H]2C[C@H](N)[C@H](O)[C@H](C)O2)C1)C(=O)c1ccccc1C3=O [Idarubicin HCl]

>  <Result>
0.1605

$$$$
>  <Compound>
N#CC(c1ccc(Cl)cc1)c1c(Cl)cc(-n2ncc(=O)[nH]c2=O)cc1Cl (centres unmarked)

>  <Result>
0.7482

$$$$

Shifting focus to the compound that follows.
Enter reported Offscreen_18hr observed with parent strain (SAWy518) for "CCCCC1=NC2(CCCC2)C(=O)N1Cc1ccc(-c2ccccc2-c2nnn[nH]2)cc1" 0.8146

====

Here's what we have: OffScreen_percentage numbers for parent strain (SAWy518).
# unit: percentage | format: bare number

Field: example entries. Status: answers known.
>  <Cpd Smiles>
COc1ccc(-c2coc3cc(O)cc(O)c3c2=O)cc1

>  <Numeric Result>
98.1165

$$$$
>  <Cpd Smiles>
O=[N+]([O-])c1ccc(CNc2nc(NCc3cccc(C(F)(F)F)c3)nc3[nH]cnc23)cc1

>  <Numeric Result>
99.4919

$$$$
>  <Cpd Smiles>
O=c1c(-c2ccc(O)cc2)coc2cc(O)cc(O)c12

>  <Numeric Result>
100.644

$$$$
>  <Cpd Smiles>
CC[C@H](c1ccc(O)cc1)[C@@H](CC)c1ccc(O)cc1

>  <Numeric Result>
99.6654

$$$$
>  <Cpd Smiles>
O=C1C[C@@H](c2ccc(O)cc2)Oc2cc(O)cc(O)c21

>  <Numeric Result>
102.107

$$$$

# returns recorded OffScreen_percentage (system: parent strain (SAWy518)) for "Cc1ccc(C(=O)Nc2ccc(CN3CCN(C)CC3)c(C(F)(F)F)c2)cc1C#Cc1cnc2[nH]ncc2c1" 97.8563

====

- Test system: parent strain (SAWy518)
Structures can show the parent of a compound that is named as a salt.
Measured Metric: Offscreen_24hr
Please state the value as a number alone, without comment.

Use the examples below as a reference point.
>  <Compound>
N#Cc1c(O)c2c(-c3ccc(-c4ccccc4O)cc3)csc2[nH]c1=O

>  <Offscreen_24hr>
0.9004

$$$$
>  <Compound>
CN(C/C=C/C#CC(C)(C)C)Cc1cccc2ccccc12 [Terbinafine hydrochloride]

>  <Offscreen_24hr>
0.5468

$$$$
>  <Compound>
CCOC(=O)Oc1c(OC)cc(C(=O)O[C@@H]2C[C@@H]3CN4CCc5c([nH]c6cc(OC)ccc56)[C@H]4C[C@@H]3[C@H](C(=O)OC)[C@H]2OC)cc1OC

>  <Offscreen_24hr>
0.7958

$$$$
>  <Compound>
CCCc1c(-c2ccc(O)cc2)nn(-c2ccc(O)cc2)c1-c1ccc(O)cc1

>  <Offscreen_24hr>
0.9026

$$$$
>  <Compound>
O=C(O)/C=C/C=C/c1ccccc1

>  <Offscreen_24hr>
0.7831

$$$$

Hello, I am looking for reported Offscreen_24hr with parent strain (SAWy518) for "Oc1ccc2ccccc2c1SSc1c(O)ccc2ccccc12" . Could you help? 0.0481

Record lookup: for parent strain (SAWy518), what Offscreen_24hr belongs to CO[C@H]1C[C@@H]2CC[C@@H](C)[C@@](O)(O2)C(=O)C(=O)N2CCCC[C@H]2C(=O)O[C@H]([C@H](C)C[C@@H]2CC[C@@H](O)[C@H](OC)C2)CC(=O)[C@H](C)/C=C(\C)[C@@H](O)[C@@H](OC)C(=O)[C@H](C)C[C@H](C)/C=C/C=C/C=C/1C [Rapamycin] ? 0.0505

Test system parent strain (SAWy518); read-out Offscreen_24hr; what value for "O=[N+]([O-])c1ccc(O)c2ncccc12" ? 0.0414

Request: Offscreen_24hr, test system parent strain (SAWy518), entry "COc1ccc2c(c1)CC[C@@H]1[C@@H]2CC[C@]2(C)[C@H](NCCCCCCN3C(=O)C=CC3=O)CC[C@@H]12" 0.8296

Lab note: need Offscreen_24hr for CCN(CC)CCNC(=O)c1c(C)[nH]c(/C=C2\C(=O)Nc3ccc(F)cc32)c1C.O=C(O)C[C@H](O)C(=O)O [Sunitinib Malate] on parent strain (SAWy518), anyone have it? 0.9023

Hi! What's the reported Offscreen_24hr for C[n+]1c2cc(N)ccc2cc2ccc(N)cc21.[Cl-] [ACRIFLAVINIUM HYDROCHLORIDE] on parent strain (SAWy518)? 0.8008

Entry COc1c(C)c2c(c(O)c1C/C=C(\C)CCC(=O)OCCN1CCOCC1)C(=O)OC2 [MYCOPHENOLATE MOFETIL] , system parent strain (SAWy518): what Offscreen_24hr was measured? 0.792

Request - read-out Offscreen_24hr | tested on parent strain (SAWy518) | compound [H]/N=C(\N/C(=N/[H])NCCCCCCNC(=N)NC(=N)Nc1ccc(Cl)cc1)Nc1ccc(Cl)cc1 [Chlorhexidine hydrochloride] 0.7908

// fetch parent strain (SAWy518) Offscreen_24hr for OC(Cn1cncn1)(Cn1cncn1)c1ccc(F)cc1F [Fluconazole] 0.8953

Give recorded Offscreen_24hr with parent strain (SAWy518) for the following compound: O=C(/C=C/c1ccccc1)c1ccc(O)cc1 [4'-HYDROXYCHALCONE] 0.8731

What reported Offscreen_24hr corresponds to "C[C@@H]1CC[C@@]2(OC1)O[C@H]1[C@@H](O)[C@H]3[C@@H]4CC[C@H]5C[C@@H](O[C@@H]6O[C@H](CO)[C@H](O[C@@H]7O[C@H](CO)[C@@H](O)[C@H](O[C@@H]8OC[C@@H](O)[C@H](O)[C@H]8O)[C@H]7O[C@@H]7O[C@H](CO)[C@H](O)[C@H](O[C@@H]8O[C@H](CO)[C@@H](O)[C@H](O)[C@H]8O)[C@H]7O)[C@H](O)[C@H]6O)[C@H](O)C[C@]5(C)[C@H]4CC[C@]3(C)[C@H]1[C@@H]2C" on parent strain (SAWy518)? 0.9181

Lab request: please report Offscreen_24hr under test system parent strain (SAWy518) for C=CCOC(Cn1ccnc1)c1ccc(Cl)cc1Cl.O=S(=O)(O)O (stereo not drawn) [ENILCONAZOLE SULFATE] 0.8908

Lab request: please report Offscreen_24hr under test system parent strain (SAWy518) for "O=C1C[C@@H](c2ccc(O)cc2)Oc2cc(O)cc(O)c21" 0.9129

Identify the measured Offscreen_24hr of "COc1cccc2c1[C@@H]1CN(CCCCn3c(=O)[nH]c4c(sc5ncc(-c6ccccc6)nc54)c3=O)C[C@@H]1CO2" for parent strain (SAWy518). 0.8863

API: value(readout=Offscreen_24hr, system=parent strain (SAWy518)) for record O=C(C1CCCCC1)N1CC(=O)N2CCc3ccccc3C2C1 (stereo not drawn) 0.8815

Lab note: need Offscreen_24hr for "c1ccc2c(c1)Nc1ccccc1S2" on parent strain (SAWy518), anyone have it? 0.8896

====

Where a name gives a salt, the structure may show the parent alone.
parent strain (SAWy518): reported Offscreen_24hr for various compounds.
// return just the number, without any unit appended

>  <Compound>
CCCCc1oc2ccccc2c1C(=O)c1cc(I)c(OCCN(CC)CC)c(I)c1 [Amiodarone hydrochloride]

>  <System Tested>
parent strain (SAWy518)

>  <Numeric Result>
0.6492

$$$$
>  <Compound>
CCCCC1=NC2(CCCC2)C(=O)N1Cc1ccc(-c2ccccc2-c2nnn[nH]2)cc1

>  <System Tested>
parent strain (SAWy518)

>  <Numeric Result>
0.8985

$$$$
>  <Compound>
Oc1c(Cl)cc(Cl)c2cccnc12

>  <System Tested>
parent strain (SAWy518)

>  <Numeric Result>
0.0467

$$$$
>  <Compound>
Cc1cc(C(C)(C)CC(C)(C)C)ccc1OCCOCC[N+](C)(C)Cc1ccccc1.[Cl-] [METHYLBENZETHONIUM CHLORIDE]

>  <System Tested>
parent strain (SAWy518)

>  <Numeric Result>
0.875

$$$$
>  <Compound>
CCN(CC)C(=S)SSC(=S)N(CC)CC [Tetraethylthiuram disulfide]

>  <System Tested>
parent strain (SAWy518)

>  <Numeric Result>
0.0418

$$$$

Pending compound:
What value of Offscreen_24hr has been recorded for this entry: "COc1c(O)cc2oc3cc(O)c(CC=C(C)C)c(O)c3c(=O)c2c1CC=C(C)C" 0.8801
